B1: glmS ribozyme (parent)
chain: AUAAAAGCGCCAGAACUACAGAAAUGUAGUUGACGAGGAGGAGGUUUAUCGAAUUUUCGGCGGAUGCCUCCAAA

Variants of: B1
METHOD: self-cleavage kobs at 2500 uM GlcN6P; higher = faster cleavage; RNA array
PROTOCOL CONDITIONS: with glucosamine-6-phosphate
Variants at the floor of the assay were thinned out.
Binary call on self-cleavage kobs at 2500 uM GlcN6P: 1 from 0.0001 s⁻¹ upward, -1 beneath that.

[
  {
    "MUTATION STRING": "U31A G51A",
    "GROUP": -1
  },
  {
    "MUTATION STRING": "U30G G63A",
    "GROUP": -1
  },
  {
    "MUTATION STRING": "A14U G43C",
    "GROUP": -1
  },
  {
    "MUTATION STRING": "G9C G29A G41A",
    "GROUP": -1
  },
  {
    "MUTATION STRING": "A24C G29U A64G",
    "GROUP": 1
  },
  {
    "MUTATION STRING": "C8U G35C",
    "GROUP": -1
  },
  {
    "MUTATION STRING": "G9A C10U G13A A52C",
    "GROUP": -1
  },
  {
    "MUTATION STRING": "A48U A53U",
    "GROUP": 1
  },
  {
    "MUTATION STRING": "A14C A36G",
    "GROUP": -1
  },
  {
    "MUTATION STRING": "G38U U46G",
    "GROUP": -1
  },
  {
    "MUTATION STRING": "A39C C70U",
    "GROUP": 1
  },
  {
    "MUTATION STRING": "G43C A53U C58G A64G",
    "GROUP": -1
  },
  {
    "MUTATION STRING": "G35U A36C",
    "GROUP": -1
  },
  {
    "MUTATION STRING": "A36U G41U U55A",
    "GROUP": -1
  },
  {
    "MUTATION STRING": "A36G U65G",
    "GROUP": -1
  },
  {
    "MUTATION STRING": "G35C C50G",
    "GROUP": 1
  },
  {
    "MUTATION STRING": "U47A C68G U69G",
    "GROUP": -1
  },
  {
    "MUTATION STRING": "C8U A12C C61G",
    "GROUP": -1
  },
  {
    "MUTATION STRING": "U55G C67G",
    "GROUP": 1
  },
  {
    "MUTATION STRING": "A48C U69C",
    "GROUP": -1
  },
  {
    "MUTATION STRING": "A42G U55G A64G C71G",
    "GROUP": -1
  },
  {
    "MUTATION STRING": "U46A U54G",
    "GROUP": 1
  },
  {
    "MUTATION STRING": "A39C C58G G63U U65A C71G",
    "GROUP": -1
  },
  {
    "MUTATION STRING": "A48U U65G C70U",
    "GROUP": 1
  },
  {
    "MUTATION STRING": "G38A U47C",
    "GROUP": -1
  },
  {
    "MUTATION STRING": "G43U A48C C61G",
    "GROUP": -1
  },
  {
    "MUTATION STRING": "U55G C70U C71G",
    "GROUP": -1
  }
]

Where these numbers come from: the supplement of paper PMC7125110
